test: Solubility in water
Starred links: 1 amine or outer side, 2 acyl side, 3 side chain; linkers in the order of their positions; H or OH if unused. Positions of bridges follow the written chain, without caps; N, C: chain ends. Non-standard residues stand in square brackets, D forms with d. Residues, ends and D or L forms follow the SMILES beside them. *: point of attachment. βAsp = O=C(O)[C@H](CC(=O)[*:2])N[*:1]; His(π-Me) = Cn1cncc1C[C@H](N)C(=O)O; For = O=C*
measurement-type: solubility

Which measured solubility value corresponds to C[C@@H](O)[C@H](NC(=O)[C@H](Cc1c[nH]c2ccccc12)NC=O)C(=O)N[C@H](CCCNC(=N)N)C(=O)N[C@@H]1C(=O)N[C@@H](Cc2cncn2C)C(=O)N[C@H](C(=O)O)CC(=O)N[C@H](CO)C(=O)N[C@@H](Cc2ccccc2)C(=O)NCC(=O)N[C@H](CCCNC(=N)N)C(=O)N[C@@H](CO)C(=O)N[C@H](C(=O)O)CC(=O)O[C@@H]1C [evybactin] (For-WT[dR]T[His(π-Me)][βAsp][dS]FG[dR]S[βAsp]; ester 4-C) ? > 40 mg/mL
